- tested system: recombinant MtbUGM (Mycobacterium tuberculosis)
- Construct: made in house
- Sequence (P9WIQ1 whole entry): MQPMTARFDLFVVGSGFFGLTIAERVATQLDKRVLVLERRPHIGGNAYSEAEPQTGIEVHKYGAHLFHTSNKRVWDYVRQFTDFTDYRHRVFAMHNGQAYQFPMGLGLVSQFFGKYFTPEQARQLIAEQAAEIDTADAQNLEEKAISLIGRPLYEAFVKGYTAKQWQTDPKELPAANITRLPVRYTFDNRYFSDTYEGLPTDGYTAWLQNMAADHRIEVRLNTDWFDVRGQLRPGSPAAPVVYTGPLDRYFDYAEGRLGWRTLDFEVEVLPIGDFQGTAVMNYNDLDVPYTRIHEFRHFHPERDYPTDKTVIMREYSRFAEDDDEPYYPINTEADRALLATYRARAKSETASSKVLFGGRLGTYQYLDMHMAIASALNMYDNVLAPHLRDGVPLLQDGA
- experimental protocol: biochemical
- measurement setup: read-out: % inhib MtbUGM (100 μM)
outcome measure: inhibition at 100 µM (%)
State just the number; it will be interpreted in %.

// below: answered compounds
O=C(CC1Sc2nnc(Cc3ccc(Br)cc3)n2N=C1c1ccc(Cl)c(Cl)c1)NS(=O)(=O)c1ccccc1 (centres unmarked)
100
O=C(CC1Sc2nnc(Cc3ccc(Br)cc3)n2N=C1c1ccc(Cl)cc1)NS(=O)(=O)c1ccc(Cl)s1 (centres unmarked)
100
O=C(CC1Sc2nnc(Cc3ccc(-c4ccccc4)cc3)n2N=C1c1ccc(Cl)c(Cl)c1)NS(=O)(=O)c1ccccc1 (centres unmarked)
100
Cn1cnc(S(=O)(=O)NC(=O)CC2Sc3nnc(Cc4ccc(Br)cc4)n3N=C2c2ccc(Cl)cc2)c1 (centres unmarked)
68

Could you now consider this next compound?
// map O=C(CC1Sc2nnc(Cc3ccc(Br)cc3)n2N=C1c1ccc(Cl)cc1)NS(=O)(=O)c1cccs1 (centres unmarked) to recorded inhibition at 100 µM (system: recombinant MtbUGM (Mycobacterium tuberculosis)) 100
